These entries and their values trace back to PubChem BioAssay AID588856.

- assay_details: qHTS for Inhibitors of TGF-b: Cytotox Counterscreen
- protocol_conditions: HepG2 CAGA-GFP viability, ATP luminescence, 18 h; series mostly up to 46.1 µM
About 3,100 (0.76%) of roughly 410,000 compounds were called active. Calls come from the whole dose curve; as a rule, active = well fitted cell-killing curve with a large enough effect; inactive = no such curve, though single readings can be large or run the other way. This excerpt belongs to a sample that is enriched for actives.
Classes to choose from: active, inactive

COc1cc(OC)cc(C(=O)Nc2ccc3nc(Nc4cccc(C(F)(F)F)c4)cc(C)c3c2)c1 :: inactive
CCn1cc(CN2CCC(C(=O)Nc3cccc(-c4cccc(Cl)c4)c3)CC2)c(C)n1 :: active
COc1ccc(CNC(=O)c2ccc3c(O)c(S(=O)(=O)c4ccccc4)c(=O)[nH]c3c2)cc1 :: inactive
COC(=O)c1c(NC(=O)c2ccc(S(=O)(=O)N3CCOCC3)cc2)sc2c1CCN(C(C)C)C2 :: inactive
N#Cc1ccc[n+](CC(=O)c2ccc(F)cc2)c1 :: inactive
O=C(O)C1=C/C(=C/C=[N+]2c3cc(O)c(O[C@H]4OC(CO)[C@@H](O)[C@@H](O)[C@@H]4O)cc3C[C@@H]2C(=O)[O-])C[C@H](C(=O)O)N1 (some centres undefined) :: inactive

Qu. Outcome logged for COc1cc(NC(=O)c2[nH]cnc2C(N)=O)cc(C(=O)Nc2cccc(C(F)(F)F)c2)c1 in this assay:
Ans. active
